Test system: HEK293T (UBE3A T485A transfected, BAR Wnt reporter)
runDescription: Renilla luciferase signal (cell health) relative to plate median (fold (linear ratio)); higher = higher Renilla signal
settings: concentration: 0.1 uM; 24 h
Whole data set: some 1,100 compounds, median “Renilla luciferase signal (cell health) relative to plate median” near 0.97, cut for the highest 2% near 1.6. The full list was thinned out, with the highest values kept by preference.
The following compounds are shown together with reported Renilla luciferase signal values.
property: Renilla luciferase signal

1. O=c1[nH]c2cc([N+](=O)[O-])c([N+](=O)[O-])cc2[nH]c1=O = 1.01
2. COc1ccc(-c2ccc(=N)n(CCCC(=O)O)n2)cc1 = 0.914
3. CCCCCCCCCCCCCCCCOS(=O)(=O)[O-].[Na+] [Sodium hexyldecyl sulfate] = 1.11
4. CC(=O)OC1C(=O)C2(C)C(O)CC3OCC3(OC(C)=O)C2C(OC(=O)c2ccccc2)C2(O)CC(OC(=O)C(O)C(NC(=O)c3ccccc3)c3ccccc3)C(C)=C1C2(C)C (centres undefined) [Taxol] = 0.104
5. CCOC(=O)COc1cc(-n2ncc(C(F)(F)F)c(C)c2=O)c(F)cc1Cl [Flufenpyr-ethyl] = 0.957
6. O=C(O)c1ccc([N+](=O)[O-])cc1 [4-Nitrobenzoic acid] = 1.01
7. Sc1nc2ccccc2s1 [2-Mercaptobenzothiazole] = 0.981
8. O=[N+]([O-])c1ccc(O)cc1 [4-Nitrophenol] = 0.863
9. CCCCCCCCOC(=O)c1cc(O)c(O)c(O)c1 [Octyl gallate] = 0.909

====

The following molecules are shown together with reported Renilla luciferase signal values.
System: HEK293T (UBE3A T485A transfected, BAR Wnt reporter)
runDescription: Renilla luciferase signal (cell health) relative to plate median (fold (linear ratio)); higher = higher Renilla signal
settings: concentration: 100 uM; 24 h
Over roughly 1,100 compounds, “Renilla luciferase signal (cell health) relative to plate median” has its median near 0.97; the highest 2% begin near 1.6. This excerpt belongs to a sample that is enriched for the highest values.
property: Renilla luciferase signal

1. CN(C)CCOC(c1ccccc1)c1ccccc1.Cl [Diphenhydramine hydrochloride] = 0.491
2. Oc1cc2ccccc2c2ccccc12 [9-Phenanthrol] = 0.0207
3. CCCC(=O)O [Butanoic acid] = 1.73
4. Cn1c(=O)c2[nH]cnc2n(C)c1=O [Theophylline] = 1.09
5. c1ccc2cc3ccccc3cc2c1 [Anthracene] = 0.992
6. Cc1cc(C=C2SC(=O)N(c3ccccc3)C2=O)c(C)n1-c1cccnc1 = 0.257
7. Cc1cccc(Nc2cc(Cl)nc(SCC(=O)O)n2)c1C [Pirinixic acid] = 1.71
8. CCCCCCCCCC(=O)O [Decanoic acid] = 0.979
9. Cn1cnc2c1c(=O)[nH]c(=O)n2C [Theobromine] = 1.22
10. O=C(O)c1cn(C2CC2)c2cc(N3CCNCC3)c(F)cc2c1=O [Ciprofloxacin] = 0.336
11. CCCCCC(=O)O [Hexanoic acid] = 1.41

====

System: HEK293T (UBE3A T485A transfected, BAR Wnt reporter)
runDescription: Renilla luciferase signal (cell health) relative to plate median (fold (linear ratio)); higher = higher Renilla signal
settings: concentration: 1 uM; 24 h
The full ranking holds about 1,100 compounds; the median of “Renilla luciferase signal (cell health) relative to plate median” is about 0.97, and the highest 2% start at about 1.6. Only a selection was taken, and the highest values are over-represented in it overall.
Use criterion met when the recorded Renilla luciferase signal is no lower than 1; use criterion not met when it is lower.

1. O=C(O)c1cccc(C(=O)O)c1 = criterion met
2. Cn1cnc2c1c(=O)[nH]c(=O)n2C = criterion not met
3. O=C(O)Cc1cc(I)c(Oc2ccc(O)c(I)c2)c(I)c1 = criterion met
4. OCCC(F)(F)C(F)(F)C(F)(F)C(F)(F)C(F)(F)C(F)(F)C(F)(F)C(F)(F)F [1,1,2,2-Tetrahydroperfluoro-1-decanol] = criterion not met
5. Nc1cccc2c(N)cccc12 = criterion not met
6. CC(=O)c1ccccc1 = criterion not met
7. COc1cc(C(C)C)c2c(c1)S(=O)(=O)N(COc1cc(=O)n3cccc(OCCN4CCCCC4)c3n1)C2=O = criterion met
8. Nc1cccc(N)c1 = criterion met
9. CCSC(=O)N(CC(C)C)CC(C)C [Butylate] = criterion met
10. Nc1ccc2c(c1)C(=O)c1ccccc1C2=O = criterion not met
11. O=C(O)Cc1cc(I)c(Oc2cc(I)c(O)c(I)c2)c(I)c1 = criterion met
12. O=C(O)c1ccccc1 = criterion met
13. CO[C@@H]1COCC[C@@H]1[NH2+][C@@H]1CC[C@@](C(=O)N2CCc3ncc(C(F)(F)F)cc3C2)(C(C)C)C1.O=C([O-])CCC(=O)O = criterion met
14. N[C@@H](Cc1cc(I)c(Oc2ccc(O)c(I)c2)c(I)c1)C(=O)O = criterion met
15. Cc1ccc(S(=O)(=O)NC(=O)NN2CCCCCC2)cc1 [Tolazamide] = criterion not met
16. Cc1ccc(C)c(O)c1C = criterion not met
17. Cc1ccc(N)cc1O = criterion met

====

System: HEK293T (UBE3A T485A transfected, BAR Wnt reporter)
runDescription: Renilla luciferase signal (cell health) relative to plate median (fold (linear ratio)); higher = higher Renilla signal
settings: concentration: 100 uM; 24 h
In all, about 1,100 compounds were measured (“Renilla luciferase signal (cell health) relative to plate median”: median about 0.97, highest 2% from about 1.6 on). The full list was thinned out, with the highest values kept by preference.
The following compounds are shown together with reported Renilla luciferase signal values.
property: Renilla luciferase signal

1. Cc1ccc(C)c(O)c1C = 1.14
2. Cc1ccc(C)c(O)c1 = 1.28
3. CNCc1cc(F)ccc1Oc1ccc(Cl)c(Cl)c1 = 0.0625
4. CN(C)[C@@H]1C(O)=C(C(N)=O)C(=O)[C@@]2(O)C(O)=C3C(=O)c4c(O)cccc4[C@@](C)(O)[C@H]3C[C@@H]12 = 1.7
5. CC(=O)OC1C(=O)C2(C)C(O)CC3OCC3(OC(C)=O)C2C(OC(=O)c2ccccc2)C2(O)CC(OC(=O)C(O)C(NC(=O)c3ccccc3)c3ccccc3)C(C)=C1C2(C)C (stereo not drawn) = 0.0793
6. OCC(CO)(CBr)CBr = 1.07
7. CN(C)CCCN(C)CCCN(C)C = 0.932
8. OCC(CO)(CO)CO = 2.01

====

The following compounds are shown together with reported Renilla luciferase signal values.
System: HEK293T (UBE3A T485A transfected, BAR Wnt reporter)
runDescription: Renilla luciferase signal (cell health) relative to plate median (fold (linear ratio)); higher = higher Renilla signal
settings: concentration: 10 uM; 24 h
Over roughly 1,100 compounds, “Renilla luciferase signal (cell health) relative to plate median” has its median near 0.97; the highest 2% begin near 1.6. The sample holds the highest values, similar compounds and a random draw of the others, so the mix is not that of the screen.
property: Renilla luciferase signal

1. Cl.Nc1ccn([C@@H]2O[C@H](CO)[C@@H](O)[C@@H]2O)c(=O)n1 [Cytarabine hydrochloride] = 0.626
2. c1ccc2c(c1)ccc1ccccc12 = 0.858
3. CCNc1cccc(C)c1 = 0.98
4. CCN(CC)C(=O)c1cccc(C)c1 = 0.847
5. COC(=O)CSc1cc(/N=c2\sc(=O)n3n2CCCC3)c(F)cc1Cl = 1
6. Cc1ccc(S(=O)(=O)NC(=O)NN2CCCCCC2)cc1 [Tolazamide] = 0.872
7. Cn1c(=O)c2c(ncn2C)n(C)c1=O = 0.989
8. c1ccc2cc3ccccc3cc2c1 = 0.952
9. O=C(N[C@@H](Cc1ccccc1)[C@@H](O)C(=O)N1C[C@@H](O)[C@@H](O)C1)c1cc2cc(Cl)ccc2[nH]1 = 0.851

====

Test system: HEK293T (UBE3A T485A transfected, BAR Wnt reporter)
runDescription: Renilla luciferase signal (cell health) relative to plate median (fold (linear ratio)); higher = higher Renilla signal
settings: concentration: 0.1 uM; 24 h
Whole data set: some 1,100 compounds, median “Renilla luciferase signal (cell health) relative to plate median” near 0.97, cut for the highest 2% near 1.6. This excerpt belongs to a sample that is enriched for the highest values.
property: Renilla luciferase signal

1) CCc1c(C(=O)NN2CCCCC2)nn(-c2ccc(Cl)cc2Cl)c1-c1ccc(Br)cc1 [Surinabant] = 1.06
2) O=C1CN(N=Cc2ccc([N+](=O)[O-])o2)C(=O)N1 [Nitrofurantoin] = 0.891
3) COC(=O)c1ccc(C(=O)OC)cc1 [Dimethyl terephthalate] = 0.95
4) CCOc1cccc(-n2cc(C(=O)N3CCN(c4cc(C(=O)[O-])c5ccccc5c4)CC3)nc2-c2ccc(C)cc2)c1.[Na+] = 0.869
5) CC1(C)CC(N=C=O)CC(C)(CN=C=O)C1 (stereo unspecified) [Isophorone diisocyanate] = 0.927
6) Cc1ccc(C)c(O)c1C [2,3,6-Trimethylphenol] = 0.934
7) CCCOC(=O)NCCCN(C)C.Cl [Propamocarb hydrochloride] = 0.992
8) CCCN(CCC)C(=O)SCC = 0.898
9) Cc1nc(C)nc(N2C[C@@H](C)N(c3ccnc([C@@H](C)O)n3)[C@@H](C)C2)n1 = 0.951
10) CC(C)c1cccc(C(C)C)c1 [1,3-Diisopropylbenzene] = 1.12
11) O=C(O)Cc1cc(I)c(Oc2cc(I)c(O)c(I)c2)c(I)c1 [Tetrac] = 1.07
12) Nc1ccc(S(=O)(=O)c2ccc(N)cc2)cc1 [Dapsone] = 1.03
13) O=[N+]([O-])c1ccc([O-])cc1.[Na+] [Sodium 4-nitrophenolate] = 0.98
14) Cc1oc(-c2ccccc2)nc1CCOc1cccc2c1ccn2CCC(=O)O = 0.873
15) Cc1c(C)c2c(c(C)c1O)CCC(C)(CCCC(C)CCCC(C)CCCC(C)C)O2 (stereo not drawn) [Vitamin E (alpha-tocopherol)] = 1.02
16) CCCC(CCC)C(=O)O [Valproic acid] = 0.847
17) O=C(O)Cc1cc(I)c(Oc2ccc(O)c(I)c2)c(I)c1 [Tiratricol] = 0.92
18) Cc1cccc(Nc2cc(Cl)nc(SCC(=O)O)n2)c1C [Pirinixic acid] = 0.799
19) C=CCc1ccc(OC)c(OC)c1 [Methyleugenol] = 0.897
20) COc1ccc2c(c1)c(CC(=O)O)c(C)n2C(=O)c1ccc(Cl)cc1 [Indomethacin] = 1.09
21) C[C@]12CC[C@@H]3c4ccc(O)cc4C[C@@H](CCCCCCCCCS(=O)CCCC(F)(F)C(F)(F)F)[C@H]3[C@@H]1CC[C@@H]2O (stereo partly specified) [Fulvestrant] = 1.07
22) CC(C)CC(C)(O)C#CC(C)(O)CC(C)C (stereo unspecified) [2,4,7,9-Tetramethyl-5-decyne-4,7-diol] = 0.987
23) CCCCCCC(C)OC(=O)COc1nc(F)c(Cl)c(N)c1Cl (stereo unspecified) [Fluroxypyr-meptyl] = 1.3
24) c1ccc(Nc2ccccc2)cc1 [Diphenylamine] = 1.05
25) Cc1cn([C@H]2C=C[C@@H](CO)O2)c(=O)[nH]c1=O [Stavudine] = 0.957
26) C=CCc1cc(S(=O)(=O)c2ccc(O)c(CC=C)c2)ccc1O [4,4'-Sulfonylbis[2-(prop-2-en-1-yl)phenol]] = 1
27) CN(C)CCCN1c2ccccc2Sc2ccc(Cl)cc21.Cl [Chlorpromazine hydrochloride] = 1.17
28) [Cl-].[Li+] = 1.03
29) CC1(C)C(=O)N(Cl)C(=O)N1Cl [1,3-Dichloro-5,5-dimethylhydantoin] = 0.99
30) N=C(N)c1ccc(OCCCCCOc2ccc(C(=N)N)cc2)cc1.O=S(=O)(O)CCO.O=S(=O)(O)CCO [Pentamidine isethionate] = 1.02
31) Nc1ccc(Nc2ccccc2)cc1 [N-Phenyl-1,4-benzenediamine] = 0.905
32) O.O=C1[N-]S(=O)(=O)c2ccccc21.[Na+] [Sodium saccharin hydrate] = 1.05
33) N[C@@H](Cc1cc(I)c(Oc2ccc(O)c(I)c2)c(I)c1)C(=O)O [3,5,3'-Triiodothyronine] = 0.904
34) CCOc1ccc2c(c1)C(C)=CC(C)(C)N2 [Ethoxyquin] = 1
35) Cc1c(C)c2c(c(C)c1O)CCC(C)(COc1ccc(CC3SC(=O)NC3=O)cc1)O2 (stereo unspecified) [Troglitazone] = 0.923
36) CCN(Cc1c(F)cccc1Cl)c1c([N+](=O)[O-])cc(C(F)(F)F)cc1[N+](=O)[O-] [Flumetralin] = 0.795
